tested on: TEADs; assay: TEAD-specific 8×GTIIC-luciferase reporter assay; format: cell-based; conditions: 10 μM; 8×GTIIC-luciferase; read-out: Luciferase reporter assay inhibitory rate
Short version: inhibition at 10 µM at least 70% is Y, less is N.

Here are 3 compounds together with their reported answers.
C=CC(=O)NCc1c[nH]c2cc(Cl)c(OCc3ccc4ccccc4c3)cc12 : N
O=C(CCl)c1c[nH]c2cc(Cl)c(OCc3ccccc3)cc12 : Y
COc1cc2[nH]cc(C(=O)CCl)c2cc1OCc1ccc2ccccc2c1 : Y

Now, please, on to the next compound.
Is inhibition at 10 µM for N#C/C(=C\c1c[nH]c2cc(Cl)c(OCc3cccc(C(F)(F)F)c3)cc12)C(N)=O at or above 70%?
N
